Cited source: patent US20070280918A1

Tested on: Calu-6
Assay: Growth inhibition of Calu-6 cells, products alone (IC50) and in combination (CI, Chou and Talalay)
Format: cell-based
Conditions: Calu-6; Avandia alone
parameter: IC50 (µM)
Please state the figure in µM; there is no need to write the unit.

Problem: In one line, give reported IC50 of the entry CN(CCOc1ccc(CC2SC(=O)NC2=O)cc1)c1ccccn1 (stereo not shown) .
Result: 14.1

---

System: NCI-H460
Experiment: Growth inhibition of NCI-H460 cells, products alone (IC50) and in combination (CI, Chou and Talalay)
Format: cell-based
Details: Avandia alone
parameter: IC50 (µM)
Please state the figure in µM; there is no need to write the unit.

Problem: Please report IC50 with NCI-H460 for item CN(CCOc1ccc(CC2SC(=O)NC2=O)cc1)c1ccccn1 (stereo not shown) .
Result: 8.84
